# assayed_system: Tyrosine-protein phosphatase non-receptor type 1 (Homo sapiens)
# Sequence (whole entry): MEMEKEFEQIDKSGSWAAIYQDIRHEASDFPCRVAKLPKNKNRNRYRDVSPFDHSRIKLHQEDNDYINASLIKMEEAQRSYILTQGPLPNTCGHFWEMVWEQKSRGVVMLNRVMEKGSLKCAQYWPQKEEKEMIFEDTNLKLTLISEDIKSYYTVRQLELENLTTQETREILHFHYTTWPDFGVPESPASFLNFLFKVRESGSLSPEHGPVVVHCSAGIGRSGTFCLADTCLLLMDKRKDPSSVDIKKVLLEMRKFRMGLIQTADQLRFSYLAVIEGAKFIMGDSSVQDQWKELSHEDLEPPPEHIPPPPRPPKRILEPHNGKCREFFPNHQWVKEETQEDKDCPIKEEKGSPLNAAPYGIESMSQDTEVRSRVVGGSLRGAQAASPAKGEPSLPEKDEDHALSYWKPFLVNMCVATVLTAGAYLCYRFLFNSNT
# assay_remarks: Inhibition of recombinant human PTP1B using pNPP as substrate assessed as residual activity at 30 uM after 30 mins by spectrometric method relative to control
Here, each record is paired with measured Activity data.
Use % as the unit, but write only the number.

Below are worked cases with known answers.
Problem: Which Activity is reported for this molecule? "COc1cc(/C=C/CO)ccc1O[C@@H]1O[C@H](CO)[C@@H](O)[C@H](O)[C@H]1O"
Solution: 99.2

Problem: Given the entry "O=C1OC[C@H]2O[C@@H](Oc3cc(O)cc(O)c3C(=O)CCc3ccc(O)c(O)c3)[C@H](O)[C@@H](O)[C@@H]2OC(=O)c2cc(O)c(O)c(O)c2-c2c1cc(O)c(O)c2O" , report its measured Activity.
Solution: 84.4

Problem: Entry O=C1OC[C@H]2O[C@@H](Oc3cc(O)c(C(=O)CCc4ccccc4)c(O)c3)[C@H](O)[C@@H](O)[C@@H]2OC(=O)c2cc(O)c(O)c(O)c2-c2c1cc(O)c(O)c2O [THONNINGIANIN B] : reported Activity = ?
Solution: 28.5

Problem: Record request: Activity value, item "O=C(OC[C@H]1O[C@@H](Oc2cc(O)c(C(=O)CCc3ccccc3)c(O)c2)[C@H](O)[C@@H](O)[C@@H]1O)c1cc(O)c(O)c(O)c1"
Solution: 99.4

Others:
Problem: Endpoint output: Activity of "O=C(CCc1ccccc1)c1c(O)cc(O[C@@H]2O[C@H](CO)[C@@H](O)[C@H](O)[C@H]2O)cc1O" . Value?
Solution: 97.7

Problem: Quick one: Activity of "O=C(OC[C@H]1O[C@@H](Oc2cc(O)cc(O)c2C(=O)CCc2ccc(O)c(O)c2)[C@H](O)[C@@H](O)[C@@H]1O)c1cc(O)c(O)c(O)c1" ?
Solution: 91.7

====

# assayed_system: Tyrosine-protein phosphatase non-receptor type 1 (Homo sapiens)
# assay_remarks: Inhibition of recombinant human PTP1B using pNPP as substrate assessed as residual activity at 30 uM after 30 mins by spectrometric method relative to control
metric_name: Activity (%)
Field format: number, assumed %, no unit text.

Problem: Sample "COc1cc([C@H]2OC[C@H]3[C@@H]2CO[C@@H]3c2ccc(O)c(OC)c2)ccc1O" — what was its Activity?
Solution: 98.6

Problem: GET /values?readout=Activity&item= "COc1cc(C[C@H]2CO[C@H](c3ccc(O)c(OC)c3)[C@H]2CO)ccc1O"
Solution: 86.1

Problem: Would you mind telling me what Activity value was observed for "O=C(O[C@@H]1[C@@H](O)[C@H](Oc2cc(O)cc(O)c2C(=O)CCc2ccc(O)cc2)O[C@@H]2COC(=O)c3cc(O)c(O)c(O)c3-c3c(cc(O)c(O)c3O)C(=O)O[C@@H]12)c1cc(O)c(O)c(O)c1" ?
Solution: 20.8

Shifting focus to the compound that follows.
Problem: Requested field: Activity. Item: "O=C(O[C@@H]1[C@@H](O)[C@H](Oc2cc(O)cc(O)c2C(=O)CCc2ccc(O)c(O)c2)O[C@@H]2COC(=O)c3cc(O)c(O)c(O)c3-c3c(cc(O)c(O)c3O)C(=O)O[C@@H]12)c1cc(O)c(O)c(O)c1"
Solution: 29.2
